Target: Human CB1R (Cannabanoid receptor 1) (Homo sapiens (Human))
Sequence (P21554 whole entry): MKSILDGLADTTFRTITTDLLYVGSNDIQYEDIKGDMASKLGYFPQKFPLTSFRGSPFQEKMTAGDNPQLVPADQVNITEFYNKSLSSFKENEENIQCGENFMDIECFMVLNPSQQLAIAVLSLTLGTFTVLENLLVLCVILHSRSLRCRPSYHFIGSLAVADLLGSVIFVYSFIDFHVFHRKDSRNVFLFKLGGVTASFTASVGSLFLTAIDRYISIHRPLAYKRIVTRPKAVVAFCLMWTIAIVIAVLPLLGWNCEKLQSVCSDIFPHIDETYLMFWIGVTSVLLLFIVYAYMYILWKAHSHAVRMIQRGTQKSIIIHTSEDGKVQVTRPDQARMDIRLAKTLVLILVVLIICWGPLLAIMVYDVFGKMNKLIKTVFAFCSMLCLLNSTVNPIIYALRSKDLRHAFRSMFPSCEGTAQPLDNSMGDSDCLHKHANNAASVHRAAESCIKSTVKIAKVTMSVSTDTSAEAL
Test: CB-1 in vitro cAMP (HTRF) assay in HEK-293 cells
Settings: HEK-293 cells stably transfected with human CB1R, 250 nM Forskolin, mean where tested more than once, read-out: CB-1 (HEK_cAMP) EC50
Overview of reported pEC50 across a group of compounds:
pEC50 is a log-scale quantity: -log10 of the concentration expressed in molar.

O=C(O)CCS(=O)(=O)N1CCC(c2nn(C3CC3)c3ccc(C(c4ccc(Cl)cc4)c4ccc(Cl)cc4)cc23)CC1 [Compound 106] ... 5.04

Entry under test: O=C(O)Cc1cccc(N2CCC(c3nn(C4CC4)c4ccc(C(c5ccc(Cl)cc5)c5ccc(Cl)cc5)cc34)CC2)c1 . Its pEC50 was 5.18

Entry under test: CS(=O)(=O)N1CCC(Nc2n[nH]c3ccc(C(c4ccc(Cl)cc4)c4ccc(Cl)cc4)cc23)CC1 . Its pEC50 was 6.87

Entry under test: O=C(O)c1ccccc1Cn1nc(N2CCN(S(=O)(=O)C(F)(F)F)CC2)c2cc(C(c3ccc(Cl)cc3)c3ccc(Cl)cc3)ccc21 . Its pEC50 was 6.03

Entry under test: NC(=O)c1ccccc1Cn1nc(N2CCN(S(=O)(=O)C(F)(F)F)CC2)c2cc(C(c3ccc(Cl)cc3)c3ccc(Cl)cc3)ccc21 . Its pEC50 was 6.19

Entry under test: O=S(=O)(N1CCC(c2nn(C3CC3)c3ccc(C(c4ccc(Cl)cc4)c4ccc(Cl)cc4)cc23)CC1)C(F)(F)F [Compound 275] . Its pEC50 was 7.62

Entry under test: O=C(O)c1ccc(S(=O)(=O)N2CCC(c3n[nH]c4ccc(C(c5ccc(Cl)cc5)c5ccc(Cl)cc5)cc34)CC2)s1 . Its pEC50 was 6.57

Entry under test: O=C(O)c1cccc(S(=O)(=O)N2CCC(c3nn(C4CC4)c4ccc(C(c5ccc(Cl)cc5)c5ccc(Cl)cc5)cc34)CC2)c1 . Its pEC50 was 6.94

Entry under test: COc1ccccc1S(=O)(=O)N1CCC(c2c3cc(C(c4ccc(Cl)cc4)c4ccc(Cl)cc4)ccc3nn2C2CC2)CC1 . Its pEC50 was 9.00

Entry under test: NC(=O)Cn1nc(N2CCN(S(=O)(=O)C(F)(F)F)CC2)c2cc(C(c3ccc(Cl)cc3)c3ccc(Cl)cc3)ccc21 . Its pEC50 was 7.08

Entry under test: NC(=O)c1ccc(S(=O)(=O)N2CCC(c3n[nH]c4ccc(C(c5ccc(Cl)cc5)c5ccc(Cl)cc5)cc34)CC2)cc1 . Its pEC50 was 6.87

Entry under test: COC(=O)c1ccc(S(=O)(=O)N2CCC(c3n[nH]c4ccc(C(c5ccc(Cl)cc5)c5ccc(Cl)cc5)cc34)CC2)cc1 . Its pEC50 was 6.82

Entry under test: NC(=O)c1ccc(S(=O)(=O)N2CCC(c3nn(C4CC4)c4ccc(C(c5ccc(Cl)cc5)c5ccc(Cl)cc5)cc34)CC2)cc1 . Its pEC50 was 7.20
